# System: 786-0 complex spheroids with HUVEC/MSC, growth % test/control
# experiment: Anticancer human tumor 786-0 cell line growth inhibition [AhR];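 further: compound exposure lasted seven days before the read-out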
# applied conditions: second compound 3.16 µM; first compound 0.01 µM; active compounds read low
Recorded viability, T/C values for a group of compounds are listed next.
recorded metric: viability, T/C (%)

>  <compound>
CC1COCCN1c1cc(-c2ccnn2C)c2ccnc(-c3ccn[nH]3)c2n1 (stereo not drawn) + Cc1ccccc1N=Nc1ccc(NC(=O)c2ccnn2C)c(C)c1

>  <recorded metric>
viability, T/C

>  <readout unit>
%

>  <reported>
112

$$$$
>  <compound>
CC[C@@]1(O)C(=O)OCc2c1cc1n(c2=O)Cc2cc3c(CN(C)C)c(O)ccc3nc2-1 + Cc1ccccc1N=Nc1ccc(NC(=O)c2ccnn2C)c(C)c1

>  <recorded metric>
viability, T/C

>  <readout unit>
%

>  <reported>
92.3

$$$$
>  <compound>
Cn1ncnc1C1c2n[nH]c(=O)c3cc(F)cc(c23)NC1c1ccc(F)cc1 (stereo not drawn) + CC(CO)NC(=O)c1cc(-c2ccc(Cl)cc2)nn(-c2cnn(C)c2)c1=O

>  <recorded metric>
viability, T/C

>  <readout unit>
%

>  <reported>
111

$$$$

----------
# Test system: 786-0 complex spheroids with HUVEC/MSC, growth % test/control
# experiment: Anticancer human tumor 786-0 cell line growth inhibition [AhR];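 further: compound exposure lasted seven days before the read-out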
# applied conditions: second compound 10 µM; first compound 0.316 µM; active compounds read low
Decision: viability, T/C beneath 80% gives Condition met; viability, T/C meeting or exceeding 80% gives Condition not met.

>  <compound>
Nc1ccccc1NC(=O)c1ccc(CNC(=O)OCc2cccnc2)cc1 + Cc1ccccc1N=Nc1ccc(NC(=O)c2ccnn2C)c(C)c1

>  <target or test system>
786-0 complex spheroids with HUVEC/MSC, growth % test/control

>  <group label>
Condition not met

$$$$
>  <compound>
Nc1ncn(C2CC(O)C(CO)O2)c(=O)n1 (centres undefined) + Cc1ccccc1N=Nc1ccc(NC(=O)c2ccnn2C)c(C)c1

>  <target or test system>
786-0 complex spheroids with HUVEC/MSC, growth % test/control

>  <group label>
Condition not met

$$$$
>  <compound>
COc1cc(Nc2ncc3c(n2)-c2ccc(Cl)cc2C(c2c(F)cccc2OC)=NC3)ccc1C(=O)O + Cc1cncc(-c2nc(NCCc3c[nH]c4ccccc34)c3ncn(C(C)C)c3n2)c1

>  <target or test system>
786-0 complex spheroids with HUVEC/MSC, growth % test/control

>  <group label>
Condition met

$$$$
>  <compound>
CC1COCCN1c1cc(-c2ccnn2C)c2ccnc(-c3ccn[nH]3)c2n1 (centres undefined) + CC(CO)NC(=O)c1cc(-c2ccc(Cl)cc2)nn(-c2cnn(C)c2)c1=O

>  <target or test system>
786-0 complex spheroids with HUVEC/MSC, growth % test/control

>  <group label>
Condition met

$$$$
>  <compound>
COc1cccc2c1C(=O)c1c(O)c3c(c(O)c1C2=O)CC(O)(C(=O)CO)CC3OC1CC(N)C(O)C(C)O1 (centres undefined) + Cc1cncc(-c2nc(NCCc3c[nH]c4ccccc34)c3ncn(C(C)C)c3n2)c1

>  <target or test system>
786-0 complex spheroids with HUVEC/MSC, growth % test/control

>  <group label>
Condition met

$$$$
>  <compound>
CC(C)c1c(-c2ccccc2)nc2c(C#N)c[nH]n2c1=O + Cc1cncc(-c2nc(NCCc3c[nH]c4ccccc34)c3ncn(C(C)C)c3n2)c1

>  <target or test system>
786-0 complex spheroids with HUVEC/MSC, growth % test/control

>  <group label>
Condition met

$$$$
>  <compound>
O=C(C=Cc1cccc(S(=O)(=O)Nc2ccccc2)c1)NO + Cc1ccccc1N=Nc1ccc(NC(=O)c2ccnn2C)c(C)c1

>  <target or test system>
786-0 complex spheroids with HUVEC/MSC, growth % test/control

>  <group label>
Condition not met

$$$$
>  <compound>
Nc1ccn(C2OC(CO)C(O)C2(F)F)c(=O)n1 (centres undefined) + Cc1cncc(-c2nc(NCCc3c[nH]c4ccccc34)c3ncn(C(C)C)c3n2)c1

>  <target or test system>
786-0 complex spheroids with HUVEC/MSC, growth % test/control

>  <group label>
Condition met

$$$$
>  <compound>
COc1ccc([C@@H](O)c2cc(-c3ncnc4cc(N5CCOCC5)ccc34)c(F)cc2Cl)nn1 + CC(CO)NC(=O)c1cc(-c2ccc(Cl)cc2)nn(-c2cnn(C)c2)c1=O

>  <target or test system>
786-0 complex spheroids with HUVEC/MSC, growth % test/control

>  <group label>
Condition not met

$$$$
>  <compound>
O=C(c1cc(Cc2n[nH]c(=O)c3ccccc23)ccc1F)N1CCN(C(=O)C2CC2)CC1 + Cc1ccccc1N=Nc1ccc(NC(=O)c2ccnn2C)c(C)c1

>  <target or test system>
786-0 complex spheroids with HUVEC/MSC, growth % test/control

>  <group label>
Condition not met

$$$$
>  <compound>
CC1COCCN1c1cc(-c2ccnn2C)c2ccnc(-c3ccn[nH]3)c2n1 (centres undefined) + Cc1ccccc1N=Nc1ccc(NC(=O)c2ccnn2C)c(C)c1

>  <target or test system>
786-0 complex spheroids with HUVEC/MSC, growth % test/control

>  <group label>
Condition met

$$$$
>  <compound>
O=C(C=Cc1cccc(S(=O)(=O)Nc2ccccc2)c1)NO + Cc1cncc(-c2nc(NCCc3c[nH]c4ccccc34)c3ncn(C(C)C)c3n2)c1

>  <target or test system>
786-0 complex spheroids with HUVEC/MSC, growth % test/control

>  <group label>
Condition met

$$$$
>  <compound>
COc1ccc([C@@H](O)c2cc(-c3ncnc4cc(N5CCOCC5)ccc34)c(F)cc2Cl)nn1 + Cc1cncc(-c2nc(NCCc3c[nH]c4ccccc34)c3ncn(C(C)C)c3n2)c1

>  <target or test system>
786-0 complex spheroids with HUVEC/MSC, growth % test/control

>  <group label>
Condition met

$$$$
>  <compound>
Nc1ncn(C2CC(O)C(CO)O2)c(=O)n1 (centres undefined) + Cc1cncc(-c2nc(NCCc3c[nH]c4ccccc34)c3ncn(C(C)C)c3n2)c1

>  <target or test system>
786-0 complex spheroids with HUVEC/MSC, growth % test/control

>  <group label>
Condition met

$$$$
>  <compound>
O=C(c1cc(Cc2n[nH]c(=O)c3ccccc23)ccc1F)N1CCN(C(=O)C2CC2)CC1 + Cc1cncc(-c2nc(NCCc3c[nH]c4ccccc34)c3ncn(C(C)C)c3n2)c1

>  <target or test system>
786-0 complex spheroids with HUVEC/MSC, growth % test/control

>  <group label>
Condition met

$$$$
>  <compound>
O=C(C=Cc1cccc(S(=O)(=O)Nc2ccccc2)c1)NO + CC(CO)NC(=O)c1cc(-c2ccc(Cl)cc2)nn(-c2cnn(C)c2)c1=O

>  <target or test system>
786-0 complex spheroids with HUVEC/MSC, growth % test/control

>  <group label>
Condition not met

$$$$
>  <compound>
CC(C)c1c(-c2ccccc2)nc2c(C#N)c[nH]n2c1=O + Cc1ccccc1N=Nc1ccc(NC(=O)c2ccnn2C)c(C)c1

>  <target or test system>
786-0 complex spheroids with HUVEC/MSC, growth % test/control

>  <group label>
Condition not met

$$$$
>  <compound>
COc1cc(C2c3cc4c(cc3C(OC3OC5COC(C)OC5C(O)C3O)C3COC(=O)C23)OCO4)cc(OC)c1O (centres undefined) + CC(CO)NC(=O)c1cc(-c2ccc(Cl)cc2)nn(-c2cnn(C)c2)c1=O

>  <target or test system>
786-0 complex spheroids with HUVEC/MSC, growth % test/control

>  <group label>
Condition met

$$$$
>  <compound>
CC(C)c1c(-c2ccccc2)nc2c(C#N)c[nH]n2c1=O + CC(CO)NC(=O)c1cc(-c2ccc(Cl)cc2)nn(-c2cnn(C)c2)c1=O

>  <target or test system>
786-0 complex spheroids with HUVEC/MSC, growth % test/control

>  <group label>
Condition not met

$$$$
>  <compound>
Nc1ccccc1NC(=O)c1ccc(CNC(=O)OCc2cccnc2)cc1 + CC(CO)NC(=O)c1cc(-c2ccc(Cl)cc2)nn(-c2cnn(C)c2)c1=O

>  <target or test system>
786-0 complex spheroids with HUVEC/MSC, growth % test/control

>  <group label>
Condition not met

$$$$
>  <compound>
CC1(C)CCC(CN2CCN(c3ccc(C(=O)NS(=O)(=O)c4ccc(NCC5CCOCC5)c([N+](=O)[O-])c4)c(Oc4cnc5[nH]ccc5c4)c3)CC2)=C(c2ccc(Cl)cc2)C1 + CC(CO)NC(=O)c1cc(-c2ccc(Cl)cc2)nn(-c2cnn(C)c2)c1=O

>  <target or test system>
786-0 complex spheroids with HUVEC/MSC, growth % test/control

>  <group label>
Condition not met

$$$$
>  <compound>
CC1(C)CCC(CN2CCN(c3ccc(C(=O)NS(=O)(=O)c4ccc(NCC5CCOCC5)c([N+](=O)[O-])c4)c(Oc4cnc5[nH]ccc5c4)c3)CC2)=C(c2ccc(Cl)cc2)C1 + Cc1ccccc1N=Nc1ccc(NC(=O)c2ccnn2C)c(C)c1

>  <target or test system>
786-0 complex spheroids with HUVEC/MSC, growth % test/control

>  <group label>
Condition not met

$$$$
>  <compound>
Nc1ccccc1NC(=O)c1ccc(CNC(=O)OCc2cccnc2)cc1 + Cc1cncc(-c2nc(NCCc3c[nH]c4ccccc34)c3ncn(C(C)C)c3n2)c1

>  <target or test system>
786-0 complex spheroids with HUVEC/MSC, growth % test/control

>  <group label>
Condition met

$$$$
>  <compound>
CC1COCCN1c1cc(C2(S(C)(=N)=O)CC2)nc(-c2ccnc3[nH]ccc23)n1 (centres undefined) + Cc1cncc(-c2nc(NCCc3c[nH]c4ccccc34)c3ncn(C(C)C)c3n2)c1

>  <target or test system>
786-0 complex spheroids with HUVEC/MSC, growth % test/control

>  <group label>
Condition met

$$$$
